System: B16-F10 (NRAS mutation)
assay-notes: MTT cell viability assay, B16-F10 melanoma
Type: cell-based
test-parameters: Mus musculus, B16-F10, 24 h, 24 h, read-out: IC50 on cell viability, B16-F10 (NRAS mutation)
The reader will find reported pIC50 values listed item by item below.
Friendly reminder that pIC50 comes from taking -log10 of the concentration in mol/L.

// known answers, use as guide
# molecule, study-target, measured-value
records = [
    ("C=C1C(=O)OC2CC3=C[C@@H](C/C(C)=C/C(OC(=O)C(C)CC)[C@H]12)OC3=O (some centres unmarked) [DETD-13]", "B16-F10 (NRAS mutation)", 5.15),
    ("C=C1C(=O)OC2CC3=C[C@@H](C/C(C)=C/C(OC(=O)c4ccccc4)[C@H]12)OC3=O (some centres unmarked) [DETD-31]", "B16-F10 (NRAS mutation)", 5.54),
    ("C=C1C(=O)OC2CC3=C[C@@H](C/C(C)=C/C(OC(=O)C=C(C)C)[C@H]12)OC3=O (some centres unmarked) [DETD-8]", "B16-F10 (NRAS mutation)", 5.17),
]

--- query ---
IN: Which pIC50 value is on record for C=C(CC)C(=O)OC1/C=C(\C)C[C@@H]2C=C(CC3OC(=O)C(=C)[C@@H]13)C(=O)O2 (some centres unmarked) [DETD-19] ?
OUT: 5.11

* * *

Tested on: B16-F10 (NRAS mutation)
assay-notes: MTT cell viability assay, B16-F10 melanoma
Type: cell-based
test-parameters: Mus musculus, B16-F10, 24 h, 24 h, read-out: IC50 on cell viability, B16-F10 (NRAS mutation)
quantity: IC50 (µM)
Respond with the bare value in µM.

# compound, output-unit, IC50
rows = [
    ("C=C1C(=O)OC2CC3=C[C@@H](C/C(C)=C/[C@@H](OC(=O)[C@@H](OC)c4ccc5ccccc5c4)[C@H]12)OC3=O (stereo partly shown)", "µM", 5.3),
]

IN: Which IC50 value is on record for C=C1C(=O)OC2CC3=C[C@@H](C/C(C)=C/C(OC(=O)/C=C/c4ccco4)[C@H]12)OC3=O (stereo partly shown) ?
OUT: 6.7

IN: Also C=C1C(=O)OC2CC3=C[C@@H](C/C(C)=C/C(OC(=O)C4CCCC4)[C@H]12)OC3=O (stereo partly shown) , if possible.
OUT: 3.8

* * *

The reader will find reported IC50 values listed item by item below.
Test system: HTB-68 (NRAS mutation)
assay-notes: MTT cell viability assay, HTB-68 melanoma
Format: cell-based, human
test-parameters: Homo sapiens, 24 h
Respond with the bare value in µM.

// known answers, use as guide
# compound, IC50, µM
data = [
    ("C=C1C(=O)O[C@H]2CC3=C[C@@H](C/C(C)=C/[C@@H](OC(=O)Cc4cccc5ccccc45)[C@H]12)OC3=O [DETD-35]", 3.9),
    ("C=C1C(=O)OC2CC3=C[C@@H](C/C(C)=C/C(OC(=O)[C@@H](C)c4ccc5cc(OC)ccc5c4)[C@H]12)OC3=O (some centres unmarked) [DETD-53]", 5),
    ("C=C1C(=O)OC2CC3=C[C@@H](C/C(C)=C/[C@@H](OC(=O)/C=C/c4ccc(OCC)cc4)[C@H]12)OC3=O (some centres unmarked) [DETD-60]", 4.9),
    ("C=C1C(=O)OC2CC3=C[C@@H](C/C(C)=C/[C@@H](OC(=O)/C=C/c4ccc5c(c4)OCO5)[C@H]12)OC3=O (some centres unmarked) [DETD-61]", 5.5),
    ("C=C1C(=O)O[C@H]2CC3=C[C@@H](C/C(C)=C/[C@@H](OC(=O)/C=C/c4ccccc4)[C@H]12)OC3=O [DETD-6]", 5.7),
    ("C=C1C(=O)OC2CC3=C[C@@H](C/C(C)=C/C(OC(=O)c4ccc(Br)cc4)[C@H]12)OC3=O (some centres unmarked) [DETD-34]", 6.8),
    ("C=C1C(=O)OC2CC3=C[C@@H](C/C(C)=C/[C@@H](OC(=O)[C@H](OC)c4ccc5ccccc5c4)[C@H]12)OC3=O (some centres unmarked) [DETD-57]", 8),
    ("C=C1C(=O)OC2CC3=C[C@@H](C/C(C)=C/[C@@H](OC(=O)Cc4csc5ccccc45)[C@H]12)OC3=O (some centres unmarked) [DETD-58]", 3.8),
]

IN: Which IC50 value is on record for C=C1C(=O)OC2CC3=C[C@@H](C/C(C)=C/C(OC(=O)/C=C/c4ccc(Cl)cc4)[C@H]12)OC3=O (some centres unmarked) [DETD-28] ?
OUT: 6.1

IN: Also C=C1C(=O)OC2CC3=C[C@@H](C/C(C)=C/C(OC(=O)Cc4ccccc4)[C@H]12)OC3=O (some centres unmarked) [DETD-43] , if possible.
OUT: 8.2

IN: Also C=C1C(=O)OC2CC3=C[C@@H](C/C(C)=C/C(OC(=O)c4ccc(C)cc4)[C@H]12)OC3=O (some centres unmarked) [DETD-33] , if possible.
OUT: 5.9

* * *

System: B16-F10 (NRAS mutation)
assay-notes: MTT cell viability assay, B16-F10 melanoma
Type: cell-based
test-parameters: Mus musculus, B16-F10, 24 h, 24 h, read-out: IC50 on cell viability, B16-F10 (NRAS mutation)
quantity: pIC50
Friendly reminder that pIC50 comes from taking -log10 of the concentration in mol/L.

IN: Which pIC50 value is on record for C=C1C(=O)OC2CC3=C[C@@H](C/C(C)=C/C(OC(=O)C(C)CCC)[C@H]12)OC3=O (some centres unmarked) ?
OUT: 5.05

IN: Also C=C1C(=O)OC2CC3=C[C@@H](C/C(C)=C/C(OC(=O)c4cc5ccccc5s4)[C@H]12)OC3=O (some centres unmarked) , if possible.
OUT: 5.26

* * *

Test system: LPS-induced nitric oxide (NO) production in RAW 264.7 cells
assay-notes: Nitric oxide production in LPS-stimulated macrophages (Griess)
Type: cell-based, mouse
test-parameters: Mus musculus; LPS-stimulated RAW264.7, nitrite 24 h after LPS
quantity: IC50 (nM)
Respond with the bare value in nM.

// known answers, use as guide
# molecule, IC50 / nM
records = [
    ("C=C1C(=O)OC2CC3=C[C@@H](C/C(C)=C/C(OC(=O)C(C)CCCC)[C@H]12)OC3=O (stereo partly shown)", 3500),
    ("C=C1C(=O)OC2CC3=C[C@@H](C/C(C)=C/C(OC(=O)Cc4cccc5cc(OC)ccc45)[C@H]12)OC3=O (stereo partly shown)", 2800),
    ("C=C1C(=O)O[C@H]2CC3=C[C@@H](C/C(C)=C/[C@@H](OC(=O)/C=C/c4ccccc4)[C@H]12)OC3=O", 2500),
    ("C=C1C(=O)OC2CC3=C[C@@H](C/C(C)=C/C(OC(=O)C4CC4)[C@H]12)OC3=O (stereo partly shown)", 1800),
    ("C=C1C(=O)OC2CC3=C[C@@H](C/C(C)=C/C(OC(=O)CC(C)(CC)OC(C)=O)[C@H]12)OC3=O (stereo partly shown)", 2300),
]

IN: Which IC50 value is on record for C=C1C(=O)OC2CC3=C[C@@H](C/C(C)=C/C(OC(=O)CC(C)CC)[C@H]12)OC3=O (stereo partly shown) ?
OUT: 3400

IN: Also C=C1C(=O)OC2CC3=C[C@@H](C/C(C)=C/C(OC(=O)/C=C(\C)C(C)C)[C@H]12)OC3=O (stereo partly shown) , if possible.
OUT: 3200

* * *

Tested on: HTB-68 (NRAS mutation)
assay-notes: MTT cell viability assay, HTB-68 melanoma
Assay type: cell-based, human
test-parameters: Homo sapiens, 24 h
quantity: IC50

// known answers, use as guide
# compound, measured-value
records = [
    ("C=C1C(=O)OC2CC3=C[C@@H](C/C(C)=C/C(OC(=O)[C@H](C)c4ccc5cc(OC)ccc5c4)[C@H]12)OC3=O (stereo partly shown)", "7 µM"),
    ("C=C1C(=O)OC2CC3=C[C@@H](C/C(C)=C/C(OC(=O)CCc4cccc5ccccc45)[C@H]12)OC3=O (stereo partly shown)", "> 10 µM"),
    ("C=C1C(=O)OC2CC3=C[C@@H](C/C(C)=C/C(OC(=O)Cc4ccc(OC)cc4)[C@H]12)OC3=O (stereo partly shown)", "7.6 µM"),
    ("C=C1C(=O)OC2CC3=C[C@@H](C/C(C)=C/C(OC(C)=O)[C@H]12)OC3=O (stereo partly shown)", "> 10 µM"),
    ("C=C1C(=O)OC2CC3=C[C@@H](C/C(C)=C/C(OC(=O)/C=C/CC)[C@H]12)OC3=O (stereo partly shown)", "> 10 µM"),
]

IN: Notebook entry, HTB-68 (NRAS mutation) assay: IC50 of C=C(C)C(=O)O[C@H]1CC2=C[C@@H](C/C(C)=C/[C@H]3OC(=O)C(=C)[C@H]13)OC2=O [DET, deoxyelephantopin, reference compound] = ?
OUT: > 10 µM

IN: Also C=C1C(=O)OC2CC3=C[C@@H](C/C(C)=C/C(OC(=O)/C=C/c4ccc(OC)cc4)[C@H]12)OC3=O (stereo partly shown) , if possible.
OUT: > 10 µM
